Assay system: Pseudomonas aeruginosa LpxC enzyme (Pseudomonas aeruginosa, UniProt P47205)
Construct: made in house; host or cells: E. coli
Test: IC50 assay, LpxC enzyme from P. aeruginosa (PA LpxC enzyme IC50)
Format: biochemical
Experimental parameters: Table 3; LpxC enzyme 0.1 nM, 25° C., 1 hour; read-out: PA:IC50
IC50 under 0.03 µM gets Y, anything at or over 0.03 µM gets N.

| Compound | Group |
| --- | --- |
| CC(CCn1cc(F)c(-c2ccc(F)cc2F)cc1=O)(C(=O)NO)S(C)(=O)=O (centres unmarked) [Example 97] | Y |
| COCc1ccccc1-c1cc(=O)n(CCC(C)(C(=O)NO)S(C)(=O)=O)cc1F (centres unmarked) [Example 110] | N |
| COc1ncccc1-c1cc(=O)n(CCC(C)(C(=O)NO)S(C)(=O)=O)cc1F (centres unmarked) [Example 69] | Y |
| COc1ccc(-c2cc(=O)n(CCC(C)(C(=O)NO)S(C)(=O)=O)cc2F)cc1OC (centres unmarked) [Example 98] | Y |
| CC(CCn1cc(F)c(-c2cncc(F)c2)cc1=O)(C(=O)NO)S(C)(=O)=O (centres unmarked) [Example 55] | N |
| CC(CCn1cc(F)c(-c2cccc(CO)c2F)cc1=O)(C(=O)NO)S(C)(=O)=O (centres unmarked) [Example 122] | Y |
| CC(CCn1cc(F)c(-c2ccccc2C#N)cc1=O)(C(=O)NO)S(C)(=O)=O (centres unmarked) [Example 94] | N |
| CC(CCn1cc(F)c(-c2ccc(O)nc2)cc1=O)(C(=O)NO)S(C)(=O)=O (centres unmarked) [Example 80] | N |

* * *

Reported pIC50 values are given for each entry in this list.
Assay system: Pseudomonas aeruginosa LpxC enzyme (Pseudomonas aeruginosa, UniProt P47205)
Construct: made in house; host or cells: E. coli
Sequence (P47205 1-303): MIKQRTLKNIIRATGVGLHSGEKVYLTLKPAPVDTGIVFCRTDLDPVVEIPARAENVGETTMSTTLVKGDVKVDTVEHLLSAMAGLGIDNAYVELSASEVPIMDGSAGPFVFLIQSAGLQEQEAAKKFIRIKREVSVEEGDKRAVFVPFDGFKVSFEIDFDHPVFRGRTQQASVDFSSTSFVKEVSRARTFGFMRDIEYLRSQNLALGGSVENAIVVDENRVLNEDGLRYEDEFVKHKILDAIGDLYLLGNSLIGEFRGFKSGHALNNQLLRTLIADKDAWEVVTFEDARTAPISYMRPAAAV
Test: IC50 assay, LpxC enzyme from P. aeruginosa (PA LpxC enzyme IC50)
Type: biochemical
Experimental parameters: Table 2; LpxC enzyme 0.1 nM, 25° C., 1 hour; read-out: PA:IC50
pIC50: −log10 of the molar value.
Experimental endpoint: pIC50

| Compound | Assay system | Qual | Endpoint value |
| --- | --- | --- | --- |
| [2H]C([2H])([2H])Oc1ccc(-c2cc(=O)n(CC[C@](C)(C(=O)NO)S(C)(=O)=O)cc2F)cc1 [Example 44] | Pseudomonas aeruginosa LpxC enzyme (Pseudomonas aeruginosa, UniProt P47205) | = | 9.18 |
| COc1ccc(-c2ccc(-c3cc(=O)n(CC[C@](C)(C(=O)NO)S(C)(=O)=O)cc3F)cc2)cn1 [Example 32] | Pseudomonas aeruginosa LpxC enzyme (Pseudomonas aeruginosa, UniProt P47205) | = | 9.40 |
| COc1ccc(-c2cc(=O)n(CC[C@](C)(C(=O)NO)S(C)(=O)=O)cc2F)cc1 [Example 28] | Pseudomonas aeruginosa LpxC enzyme (Pseudomonas aeruginosa, UniProt P47205) | = | 9.25 |
| Cc1cccc(-c2cc(=O)n(CC[C@](C)(C(=O)NO)S(C)(=O)=O)cc2F)c1F [Example 2] | Pseudomonas aeruginosa LpxC enzyme (Pseudomonas aeruginosa, UniProt P47205) | = | 9.23 |
| C[C@@](CCn1cc(F)c(-c2ccc(-n3nccn3)cc2)cc1=O)(C(=O)NO)S(C)(=O)=O [Example 26] | Pseudomonas aeruginosa LpxC enzyme (Pseudomonas aeruginosa, UniProt P47205) | = | 10.13 |
| Cc1cc(-c2cc(=O)n(CC[C@](C)(C(=O)NO)S(C)(=O)=O)cc2F)ccc1F [Example 14] | Pseudomonas aeruginosa LpxC enzyme (Pseudomonas aeruginosa, UniProt P47205) | = | 9.12 |
| C[C@@](CCn1cc(F)c(-c2ccccc2)c(O)c1=O)(C(=O)NO)S(C)(=O)=O [Example 40] | Pseudomonas aeruginosa LpxC enzyme (Pseudomonas aeruginosa, UniProt P47205) | < | 7.00 |
| C[C@@](CCn1cc(F)c(-c2ccccc2F)cc1=O)(C(=O)NO)S(C)(=O)=O [Example 4] | Pseudomonas aeruginosa LpxC enzyme (Pseudomonas aeruginosa, UniProt P47205) | = | 9.14 |
| C[C@@](CCn1cc(F)c(-c2ccc(S(F)(F)(F)(F)F)cc2)cc1=O)(C(=O)NO)S(C)(=O)=O [Example 12] | Pseudomonas aeruginosa LpxC enzyme (Pseudomonas aeruginosa, UniProt P47205) | = | 8.94 |
| COc1ccc(-c2cc(=O)n(CC[C@](C)(C(=O)NO)S(C)(=O)=O)cc2F)cc1F [Example 19] | Pseudomonas aeruginosa LpxC enzyme (Pseudomonas aeruginosa, UniProt P47205) | = | 9.06 |
| COc1cccc(-c2cc(=O)n(CC[C@](C)(C(=O)NO)S(C)(=O)=O)cc2F)c1F [Example 17] | Pseudomonas aeruginosa LpxC enzyme (Pseudomonas aeruginosa, UniProt P47205) | = | 9.30 |
| COc1cccc(-c2cc(=O)n(CC[C@](C)(C(=O)NO)S(C)(=O)=O)cc2F)c1 [Example 25] | Pseudomonas aeruginosa LpxC enzyme (Pseudomonas aeruginosa, UniProt P47205) | = | 9.39 |
| C[C@@](CCn1cc(F)c(-c2ccc(OC3COC3)cc2)cc1=O)(C(=O)NO)S(C)(=O)=O [Example 15] | Pseudomonas aeruginosa LpxC enzyme (Pseudomonas aeruginosa, UniProt P47205) | = | 8.69 |
| C[C@@](CCn1cc(F)c(-c2cccc(Oc3nccs3)c2)cc1=O)(C(=O)NO)S(C)(=O)=O [Example 49] | Pseudomonas aeruginosa LpxC enzyme (Pseudomonas aeruginosa, UniProt P47205) | = | 9.12 |
| CCCc1ccc(-c2cc(=O)n(CC[C@](C)(C(=O)NO)S(C)(=O)=O)cc2F)cc1 [Example 11] | Pseudomonas aeruginosa LpxC enzyme (Pseudomonas aeruginosa, UniProt P47205) | = | 9.32 |
| C[C@@](CCn1cc(F)c(-c2ccc(OC(F)(F)F)cc2)cc1=O)(C(=O)NO)S(C)(=O)=O [Example 30] | Pseudomonas aeruginosa LpxC enzyme (Pseudomonas aeruginosa, UniProt P47205) | = | 9.97 |
| COc1cnn(-c2ccc(-c3cc(=O)n(CC[C@](C)(C(=O)NO)S(C)(=O)=O)cc3F)cc2)n1 [Example 22] | Pseudomonas aeruginosa LpxC enzyme (Pseudomonas aeruginosa, UniProt P47205) | = | 9.74 |
| C[C@@](CCn1cc(F)c(-c2ccc3c(c2)CCCO3)cc1=O)(C(=O)NO)S(C)(=O)=O [Example 8] | Pseudomonas aeruginosa LpxC enzyme (Pseudomonas aeruginosa, UniProt P47205) | = | 9.42 |
| C[C@@](CCn1cc(F)c(-c2ccc(-n3ncnn3)cc2)cc1=O)(C(=O)NO)S(C)(=O)=O [Example 1] | Pseudomonas aeruginosa LpxC enzyme (Pseudomonas aeruginosa, UniProt P47205) | = | 8.83 |
| C[C@@](CCn1cc(F)c(-c2ccc(Cl)cc2F)cc1=O)(C(=O)NO)S(C)(=O)=O [Example 16] | Pseudomonas aeruginosa LpxC enzyme (Pseudomonas aeruginosa, UniProt P47205) | = | 9.47 |
| C[C@@](CCn1cc(F)c(-c2ccc(-c3ncco3)cc2)cc1=O)(C(=O)NO)S(C)(=O)=O [Example 42] | Pseudomonas aeruginosa LpxC enzyme (Pseudomonas aeruginosa, UniProt P47205) | = | 9.48 |
| C[C@@](CCn1cc(F)c(-c2ccc(OC(F)F)cc2)cc1=O)(C(=O)NO)S(C)(=O)=O [Example 33] | Pseudomonas aeruginosa LpxC enzyme (Pseudomonas aeruginosa, UniProt P47205) | = | 10.22 |
| [2H]C([2H])([2H])c1ccc(-c2cc(=O)n(CC[C@](C)(C(=O)NO)S(C)(=O)=O)cc2F)cc1 [Example 43] | Pseudomonas aeruginosa LpxC enzyme (Pseudomonas aeruginosa, UniProt P47205) | = | 9.19 |
| CCOc1ccc(-c2cc(=O)n(CC[C@](C)(C(=O)NO)S(C)(=O)=O)cc2F)cc1 [Example 10] | Pseudomonas aeruginosa LpxC enzyme (Pseudomonas aeruginosa, UniProt P47205) | = | 9.08 |
| Cc1ccc(-c2cc(=O)n(CC[C@](C)(C(=O)NO)S(C)(=O)=O)cc2F)cc1 [Example 29] | Pseudomonas aeruginosa LpxC enzyme (Pseudomonas aeruginosa, UniProt P47205) | = | 9.29 |
| Cc1cnn(-c2ccc(-c3cc(=O)n(CC[C@](C)(C(=O)NO)S(C)(=O)=O)cc3F)cc2)n1 [Example 23] | Pseudomonas aeruginosa LpxC enzyme (Pseudomonas aeruginosa, UniProt P47205) | = | 9.54 |
| C[C@@](CCn1cc(F)c(-c2ccc(-c3ccon3)cc2)cc1=O)(C(=O)NO)S(C)(=O)=O [Example 41] | Pseudomonas aeruginosa LpxC enzyme (Pseudomonas aeruginosa, UniProt P47205) | = | 9.63 |
| C[C@@](CCn1cc(F)c(-c2ccc(-n3nccn3)c(F)c2)cc1=O)(C(=O)NO)S(C)(=O)=O [Example 36] | Pseudomonas aeruginosa LpxC enzyme (Pseudomonas aeruginosa, UniProt P47205) | = | 9.40 |
| COc1cnc(-c2ccc(-c3cc(=O)n(CC[C@](C)(C(=O)NO)S(C)(=O)=O)cc3F)cc2)nc1 [Example 21] | Pseudomonas aeruginosa LpxC enzyme (Pseudomonas aeruginosa, UniProt P47205) | = | 9.36 |
| COc1ccc(-c2cc(=O)n(CC[C@](C)(C(=O)NO)S(C)(=O)=O)cc2F)c(F)c1 [Example 27] | Pseudomonas aeruginosa LpxC enzyme (Pseudomonas aeruginosa, UniProt P47205) | = | 10.30 |

The origin of these recorded values is patent US8624034B2.
